- Test system: HOP-62 NSCLC
- Procedure Summary: NCI tumour cell line growth inhibition, 48 h
Measurement Kind: TGI

# input For the molecule `O=C1OCC/C1=C/c1ccc(N=Nc2c(O)ccc3ccccc23)cc1` , give its reported TGI.
# output 45.8 µM

# input Fill in reported TGI for this entry: O=C1NC2C=CN(Cc3ccccc3)C=C2C(=O)N2CCCC12 (stereo not given)
# output > 100 µM

# input Please report the measured TGI for `O=C1Nc2ccccc2/C1=C/c1c(Cl)[nH]c2ccc(O)cc12`
# output 19.1 µM

# input Retrieve TGI measured for COc1cc(C2C3=C(COC3=O)Nc3cc4c(cc32)CCC4)cc2c1OCO2 (stereo not given) and print it.
# output 12 µM

# input Find the measured TGI of `C/C(=N\NC(=S)NC(C)(C)C)c1ccccn1` and report it.
# output > 100 µM

# input Please supply the value of reported TGI for the item CC#CC1C(OC(=O)c2ccccc2)CCCC1(CI)N=[N+]=[N-] (stereo not given)
# output > 100 µM

# input Give TGI for `CCNCCNc1cc(C2CCCCC2)c(C#N)c2nc3ccccc3n12`
# output 6.93 µM

# input Give me measured TGI, please, for this molecule: CC(CCC(=O)O)C1CCC2C3C(O)CC4CC(O)CCC4(C)C3CC(O)C12C (stereo not given)
# output > 100 µM

# input Please indicate TGI recorded for COc1ccc(C2(O)c3ccccc3C(=O)N(C)C2(O)c2ccc(OC)cc2)cc1 (stereo not given)
# output > 100 µM

# input Please look at this molecule and report its TGI: `N#Cc1[nH]c(=O)n(-c2cccc3ccccc23)c1N`
# output > 10 µM

# input Fill in reported TGI for this entry: `CCOC(=O)C1=C(Nc2cccc3ccccc23)OC/C1=N\NC(=O)c1ccccc1O`
# output > 100 µM

# input Give the reported TGI for this molecule. O=C1CCC2(c3ccccc3)Nc3ncccc3N12 (stereo not given)
# output > 100 µM

# input // fetch TGI given entry CC12CC(OC(=O)[C@]1(C)O)[C@@H]([C@]1(O)CC[C@H]3[C@@H]4C[C@H]5O[C@]56[C@@H](O)C=CC(=O)[C@]6(C)[C@H]4CC[C@@]31C)C2 (stereo not given in full)
# output > 100 µM

# input Provide one value: measured TGI of `O=C(CCCN1CCC2(CC1)CC(=O)N(N1CCCCCC1)C2=O)c1ccc(F)cc1`
# output > 100 µM

# input Determine from records and report TGI for `O=c1oc2c(ccc3ccccc32)cc1C1=CSC2=NCCN12`
# output > 100 µM

# input Read off the recorded TGI for `COc1cc(C)c(O)c(C(=O)O)c1`
# output > 100 µM

# input Identify measured TGI associated with CCCCCC[C@H]1C(=O)O[C@H](C)[C@H](NC(=O)c2cccc(NC=O)c2OC)C(=O)O[C@@H](C)[C@@H]1OC(=O)CC(C)C (tested in a mixture with another compound)
# output > 100 µM

# input // fetch TGI given entry `O=C1[C@@H]2C[C@@H](O)CN2C(=O)c2ccccc2N1CCCO`
# output > 100 µM

# input Indicate the recorded TGI value for this molecule: `C/C(=N\NC(=S)Nc1ccc(C)cc1)c1nc2ncccc2[nH]1`
# output 39.2 µM

# input Give the value of TGI reported for the following: `C[C@]12CCc3sc(Nc4ccc(O)cc4)nc3C1=CC[C@@H]1[C@@H]2CC[C@]2(C)C(=O)CC[C@@H]12`
# output 12.6 µM
